# Test system: Bacillus subtilis
# assay_explanation: cleaved RNA product abundance (RNA/gDNA barcode ratio) relative to median wild-type variant (ratio to wild type); higher = more accumulation of the downstream cleavage product
# measurement_parameters: experiment (reporter, strain, medium): exp 4a: truncated aprE reporter, strain BJT201 with 2% xylose (RNase J1 expressed); cleavage site: cggR-gapA (positions -7 to +36 mutated)
Parameter cleaved RNA product abundance: see the listing below.
Reply briefly: the number, and no unit.

[[record]]
polymer_sequence = "ACAGACGAAGGAGCCGCAAAGAAGTTATTAAGGAATGAATAATCCCTCAATATAGATATCTCTCACTTATTTAAA"
readout_value = 0.101

[[record]]
polymer_sequence = "ACAGACGAAGGAGCCGCAAAGAAGTTATTAAGGAATGAATAATCCCTCAACATAAATATCTCTCACTTATTTAAA"
readout_value = 0.0941

[[record]]
polymer_sequence = "ACAGACGAAGGAGCCGCAAAGAAGTTATTAAGGTATGAATAATCCCCCAATATAAATATCTCTCACTTATTTAAA"
readout_value = 0.141

[[record]]
polymer_sequence = "ACAGACGAAGGAGCCGCAAAGAAGTTATTAATGGATGAATAATCCCTCAATATCAATATCTCTCACTTATTTAAA"
readout_value = 0.0753

[[record]]
polymer_sequence = "ACAGACGAAGGAGCCGCTAAGAAGTTATTAAGGGATAAATAATCCCTCAATATAAATATCTCTCACTTATTTAAA"
readout_value = 1.15


Switching to the query record.
Data request: cleaved RNA product abundance lookup needed for ACAGACGAAGGAGCCGCAAAGAAGTTATTAAGGGATGAATAATCCCTGAATATAAACATCTCTCACTTATTTAAA , thanks.
Data returned: 0.413

The measured values listed here are drawn from the supplement of paper PMC11780869.
